// provenance: a melting point compilation (Tetko et al.; mined from patent text by program, amines drawn as free bases though some values may be those of a salt)

experimentalReadout: melting point (°C)

1. COc1ncnc2c(NC3OC(CO)C(O)C3O)ncnc12 (stereo not given) : 183
2. O[C@@H]1CN=C(c2ccc3ccccc3c2)O[C@H]1c1ccccc1 (racemic) : 172

====

Listing of recorded melting point by entry.

1) CCCCCCCCCCc1c(C(=O)O)sc2c1sc1c3sc(C(=O)O)c(CCCCCCCCCC)c3sc21 : 316 to 318 °C
2) Cc1cc(Br)cc(C=NO)c1 : 128 to 129 °C
3) O=C(NS(=O)(=O)c1ccccc1C(=O)OC1COC1)Oc1ccccc1 : 91 to 92 °C

Problem: Would you kindly share the measured melting point for `CCOC(=O)c1ccc(CCc2coc(N)c2C#N)cc1` ?
Solution: 195 to 197 °C

Problem: Would you kindly share the measured melting point for Cc1cccc(C)c1N(CC(C)O)C(=O)c1ccccc1 (stereo unspecified) ?
Solution: 121 to 122 °C

Problem: Would you kindly share the measured melting point for `CCOC(=O)c1ccc2ccccc2c1O` ?
Solution: 48.5 to 49 °C

Problem: Would you kindly share the measured melting point for CCOC(=O)C1C=Nc2c(ccc(F)c2F)C1=O (stereo unspecified) ?
Solution: 270 °C

Problem: Would you kindly share the measured melting point for `CC(C)(C)OC(=O)N(CC=Cc1ccccc1)S(N)(=O)=O` ?
Solution: 118 °C

Problem: Would you kindly share the measured melting point for `C=C1CCc2c(c3ccccc3n2C)C1=O` ?
Solution: 127 to 129 °C

Problem: Would you kindly share the measured melting point for `CCCOc1cc(C(=O)O)ccc1-c1ccc(-c2ccccc2)c(-c2ccc3c(c2)C(C)(C)CCC3(C)C)c1` ?
Solution: 216 to 218 °C

Problem: Would you kindly share the measured melting point for CCC1c2cccn2-c2cc(Cl)ccc2N1S(=O)(=O)c1ccc(O)cc1 (stereo unspecified) ?
Solution: 192 to 194 °C

Problem: Would you kindly share the measured melting point for `COc1ccc(N2CCN(c3c(C)c4c(c(C)c3Br)OC(C)(C)C4)CC2)cc1` ?
Solution: 180 to 181 °C

Problem: Would you kindly share the measured melting point for COc1ccc(C2(C#N)C3CC4CC(C3)CC2C4)cc1 (stereo unspecified) ?
Solution: 165 to 166 °C

Problem: Would you kindly share the measured melting point for C#CCn1c(I)cc(C(O)CC)c(C)c1=O (stereo unspecified) ?
Solution: 126 to 127 °C

====

experimentalReadout: melting point (°C)

Examples with their reported melting point follow.
1. O=C(NCC1CCN(CC2(C(=O)O)CCC2)CC1)N1C(=O)C2(CCCC2)c2ccc(F)cc21 : 150
2. Cc1ccccc1C(=C1CN(C(c2ccccc2)c2ccccc2)C1)S(C)(=O)=O : 218
3. O=C(c1ccc(I)cc1)c1ccc2noc(-c3cccc(Cl)c3)c2c1 : 196

1 = CCOC(=O)c1cc(C#N)cc(C)n1
2 = Oc1cc(I)c(I)cc1O
Problem: For the pair 1 and 2 , which member has the lower melting point number? Answer by stating the label of the chosen item.
Solution: 1

====

experimentalReadout: melting point

Examples with their reported melting point follow.
1) N#Cc1cc(Cl)cc(Cl)c1Cl : 77 to 78 °C
2) CC(C)[C@H](O)CP(=O)(O)CCCN : 187 to 189 °C
3) CCCCOc1c(CNC(=O)OC(C)(C)C)n(CC(C)C)c(=O)c2ccc(-c3nc(C(=O)O)cs3)cc12 : 195 to 196 °C

Problem: Would you kindly share the measured melting point for `N#Cc1ccc(N(Cc2ccc(OS(N)(=O)=O)cc2)n2cnnc2)cc1-c1ccc(C(F)(F)F)cc1` ?
Solution: 177 to 180 °C

Problem: Would you kindly share the measured melting point for `Fc1cc(F)c(N=C2NCCN2)c(F)c1F` ?
Solution: 167 to 168 °C

Problem: Would you kindly share the measured melting point for `Cc1c(NCCO)c(F)cc2c(=O)c(C(=O)O)cn(-c3cc(N)c(F)cc3F)c12` ?
Solution: 166 to 168 °C

====

Listing of recorded melting point by entry.

Examples with their reported melting point follow.
1) O=C(Cc1cccs1)NCc1cccc2c1C(=O)N(C1CCC(=O)NC1=O)C2=O (stereo not given) : 171 to 173 °C
2) CCN(CC)c1ccc(NC(=O)N(C[C@@H]2CCC[C@H](CN(C(=O)Nc3ccc(N(CC)CC)cc3)C3CCCCC3)C2)C2CCCCC2)cc1 : 170 to 172 °C
3) C=Cc1cc(OC(C)=O)cc2nc(-c3ccc(OC(C)=O)c(F)c3)oc12 : 154 to 156 °C
4) O=C(Nc1ccc(Cl)c(Cl)c1)OCCCC(=O)c1ccccc1 : 141 to 143 °C

Below: the item to evaluate.
Problem: Would you kindly share the measured melting point for `O=C(O)c1ccc(-c2nnn[nH]2)cc1Sc1ccccc1` ?
Solution: 239 to 240 °C

====

experimentalReadout: melting point

Examples with their reported melting point follow.
1) Cc1cc2ncc(C#N)c(Cl)c2s1 : 163 to 164 °C
2) O=C(CCc1ccccc1)CS(=O)(=O)C(c1ccc(Cl)cc1)c1ccc(Cl)cc1 : 106 to 107 °C
3) Oc1ccc2c(c1)OCC(c1cccc(F)c1)C2c1ccc(OCCN2CCCC2)cc1 (stereo unspecified) : 146 to 150 °C
4) CCOP(=O)(CCc1cc(OCc2ccc(OCc3nc(-c4ccco4)oc3C)c(OC)c2)nn1-c1ccccc1)OCC : 76 to 77 °C
5) O=C1CCc2ccc(O)cc2O1 : 133 to 136 °C

Problem: Would you kindly share the measured melting point for `CN(c1ccc(O)cc1)c1nc2cc(Cl)ccc2s1` ?
Solution: 238 to 240 °C

Problem: Would you kindly share the measured melting point for `CN(Cc1ccc(NC(=O)c2coc3c2C(=O)CCC3)cc1)C(=O)OC(C)(C)C` ?
Solution: 150 °C

Problem: Would you kindly share the measured melting point for `CC(=O)c1ccc2c(c1)oc(=O)n2CCCN1CCC(c2noc3cc(F)ccc23)CC1` ?
Solution: 152 to 154 °C

Problem: Would you kindly share the measured melting point for `CCCC(=O)c1cnn(C)c1S(N)(=O)=O` ?
Solution: 97 to 99 °C

Problem: Would you kindly share the measured melting point for `Cn1nc(-c2ccccc2)c2ccc(Cl)nc21` ?
Solution: 94 to 96 °C

Problem: Would you kindly share the measured melting point for `CC(=O)CN(c1ccc(Cl)cc1)S(C)(=O)=O` ?
Solution: 108 °C

Problem: Would you kindly share the measured melting point for `COc1ccc(-c2cnc(N3CCC(O)CC3)nc2)cc1` ?
Solution: 158 to 160 °C

====

Listing of recorded melting point by entry.

1. C[C@@H]1c2cccn2-c2ccc(F)cc2N1C(=O)c1ccc(O)cc1 : 125 to 129 °C
2. CCC(C(=O)O)c1ccc(C(CC)C(=O)O)cc1 (stereo not given) : 198 to 202 °C
3. Cc1c(Br)cccc1NCc1c(C(=O)O)sc2ccccc12 : 120 to 121 °C

Problem: Would you kindly share the measured melting point for CCc1cn(C2CC(O)C(CCC(=O)C(C)Oc3ccc(Cl)cc3Cl)O2)c(=O)[nH]c1=O (mixture of isomers) ?
Solution: 157 to 159 °C

Problem: Would you kindly share the measured melting point for `CCCCNc1ccc(Nc2ccccc2)c2c1C(=O)c1ccccc1C2=O` ?
Solution: 118 to 120 °C

====

experimentalReadout: melting point (°C)

A = CC1(C)CC(=O)N(CCOC(OCCN2C(=O)CC(C)(C)CC2=O)(C(=O)c2ccccc2)c2ccccc2)C(=O)C1
B = Cc1c(OCc2nnn[nH]2)cc2c(c1Cl)C(=O)C1(CCCC1)C2=O
Problem: For the pair A and B , which member has the lower melting point number? Answer by stating the label of the chosen item.
Solution: A
(A: 130 °C, B: 211 °C)

====

experimentalReadout: melting point

Examples with their reported melting point follow.
1) CCCc1nc(-n2cccc2)c(CO)[nH]1 : 155 to 158 °C
2) CCOC(=O)c1cnn(-c2ccc(OCCC(C)C)c(C#N)c2)c1 : 125 to 126 °C
3) CN1C(C(=O)Nc2nncs2)=C(O)c2ccc3ccccc3c2S1(=O)=O : 217 to 219 °C
4) CCCCCCCCCCCCn1nnc(C(C(=O)Nc2c(C(C)C)cccc2C(C)C)(c2ccccc2)c2ccccc2)n1 : 154 to 156 °C
5) COc1ccccc1NC(=O)Nc1nc(N2CCOCC2)nc(N(CCC(=O)O)Cc2ccc(Cl)c(Cl)c2)n1 : 198 to 203 °C
6) CCn1c(=O)c(NC(=O)Nc2ccc(F)cc2F)c(-c2ccccc2Cl)c2cc(C)cc(C)c21 : 186 to 188 °C
7) CCOC(=O)COc1ccc(NS(C)(=O)=O)cc1OC : 118 to 119 °C
8) CCCCC[C@H]1CC[C@H](C=CCCc2ccc(O)cc2)CC1 : 89 to 90 °C

Problem: Would you kindly share the measured melting point for COCCNCC(O)c1ccccc1 (stereo not given) ?
Solution: 77 to 80 °C
